STUDY SYSTEM: Phosphatidylinositol 4,5-bisphosphate 3-kinase catalytic subunit beta isoform (Homo sapiens)
Sequence (P42338 whole entry, canonical isoform): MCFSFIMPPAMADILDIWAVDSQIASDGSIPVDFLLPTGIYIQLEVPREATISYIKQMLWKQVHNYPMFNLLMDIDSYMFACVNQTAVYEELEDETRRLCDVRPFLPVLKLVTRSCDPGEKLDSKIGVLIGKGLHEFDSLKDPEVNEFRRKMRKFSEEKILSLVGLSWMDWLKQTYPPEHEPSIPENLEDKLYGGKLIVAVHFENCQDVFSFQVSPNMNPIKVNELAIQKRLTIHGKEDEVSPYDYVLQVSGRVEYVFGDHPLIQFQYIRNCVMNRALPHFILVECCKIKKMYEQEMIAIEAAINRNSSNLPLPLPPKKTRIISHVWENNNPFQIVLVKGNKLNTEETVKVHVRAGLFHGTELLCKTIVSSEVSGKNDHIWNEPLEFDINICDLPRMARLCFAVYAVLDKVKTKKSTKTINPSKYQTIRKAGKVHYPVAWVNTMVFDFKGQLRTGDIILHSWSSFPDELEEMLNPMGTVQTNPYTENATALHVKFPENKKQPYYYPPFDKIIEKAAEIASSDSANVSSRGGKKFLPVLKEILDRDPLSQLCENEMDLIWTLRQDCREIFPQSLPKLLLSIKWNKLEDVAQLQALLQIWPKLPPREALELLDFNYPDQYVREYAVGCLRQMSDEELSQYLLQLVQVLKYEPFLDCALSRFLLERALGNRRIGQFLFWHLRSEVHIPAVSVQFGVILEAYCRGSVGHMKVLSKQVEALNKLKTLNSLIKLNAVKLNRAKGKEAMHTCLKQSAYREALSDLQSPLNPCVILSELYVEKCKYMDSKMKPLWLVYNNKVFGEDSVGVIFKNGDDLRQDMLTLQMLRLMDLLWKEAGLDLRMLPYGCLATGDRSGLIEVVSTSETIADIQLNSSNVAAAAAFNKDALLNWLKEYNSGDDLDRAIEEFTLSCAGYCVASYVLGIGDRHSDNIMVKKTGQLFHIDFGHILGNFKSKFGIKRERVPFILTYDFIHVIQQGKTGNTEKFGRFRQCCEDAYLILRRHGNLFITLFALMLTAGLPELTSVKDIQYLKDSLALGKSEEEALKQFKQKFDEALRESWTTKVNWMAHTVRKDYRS
PROTOCOL NOTES: Inhibition of human PI3Kbeta
VALUE KIND: pIC50
Quick note: pIC50 means taking -log10 of the concentration in moles per liter.

CHEMICAL STRING	NUMBER
Clc1ccc(Nc2nccc(-c3ccc(Br)cc3)n2)cc1	6.02
COc1cccc(Nc2nccc(-c3ccc(Cl)cc3Cl)n2)c1	6.05
COc1ccc(-c2ccnc(Nc3ccc(Cl)cc3Cl)n2)cc1	6.08
O=[N+]([O-])c1ccc(Nc2nccc(-c3ccc(Cl)cc3Cl)n2)cc1	6.03
O=[N+]([O-])c1ccc(Nc2nccc(-c3ccc(F)cc3)n2)cc1	6.06
Cc1cccc(Nc2nccc(-c3ccc(Cl)cc3Cl)n2)c1	6.07
O=[N+]([O-])c1ccc(Nc2nccc(-c3ccc(Cl)c(Cl)c3)n2)cc1	6.24
COc1cccc(Nc2nccc(-c3ccc(Cl)c(Cl)c3)n2)c1	6.13

According to the records, this compound COc1ccc(-c2ccnc(Nc3ccc([N+](=O)[O-])cc3)n2)cc1 displays pIC50 of 6.27

According to the records, this compound COc1ccc(-c2ccnc(Nc3ccc(Cl)cc3)n2)cc1 displays pIC50 of 6.22

Lookup result for COc1ccc(-c2ccnc(Nc3cccc(OC)c3)n2)cc1 ; measured pIC50: 6.14

Recorded pIC50 (compound CC(C)c1ccccc1Nc1nccc(-c2ccc(Br)cc2)n1 ): 6.06

Reported pIC50 of Clc1ccc(Nc2nccc(-c3ccc(Cl)cc3Cl)n2)c(Cl)c1 : 6.10
